System: Methylococcus capsulatus (Texas, ATCC 19,069)
ASSAY TEXT: Oxidation by cell suspensions of methane-grown cells
Format: cell-based
CONDITION SET: growth substrate Methane; n-alkane to secondary alcohol
MEASURED PARAMETER: Conversion Rate (μmoles/hr/^5 mg. protein)
Your answer is read as μmoles/hr/^5 mg. protein, so omit the unit and give the number.

Worked cases, Conversion Rate given:
{"LINE NOTATION": "CCCCC", "SYSTEM": "Methylococcus capsulatus (Texas, ATCC 19,069)", "MEASURED PARAMETER": "Conversion Rate", "RECORDED MEASUREMENT": 0.032}
{"LINE NOTATION": "CCCCCC", "SYSTEM": "Methylococcus capsulatus (Texas, ATCC 19,069)", "MEASURED PARAMETER": "Conversion Rate", "RECORDED MEASUREMENT": 0.01}
{"LINE NOTATION": "CCC", "SYSTEM": "Methylococcus capsulatus (Texas, ATCC 19,069)", "MEASURED PARAMETER": "Conversion Rate", "RECORDED MEASUREMENT": 1.1}

Proceed to the following item.
Item: CCCC Test system: Methylococcus capsulatus (Texas, ATCC 19,069) Read-out: Conversion Rate Value: ? 1.0

---

Tested on: Methylomonas rosaceus (CRL M10P) NRRL B-11,212
Format: cell-based
Measured Oxidative Conversion Rates, listed per entry for reference.

Worked cases, Oxidative Conversion Rates given:
{"LINE NOTATION": "C=C", "Oxidative Conversion Rates": 4.7}
{"LINE NOTATION": "C=CC", "Oxidative Conversion Rates": 1.41}
{"LINE NOTATION": "C=CCC", "Oxidative Conversion Rates": 3.1}

Proceed to the following item.
Reported Oxidative Conversion Rates, molecule C : ____ 7.3

---

Measured Conversion Rate, listed per entry for reference.
System: cell extract of Candida utilis ATCC 26,387
ASSAY TEXT: Oxidation of secondary alcohols to methylketone by cell extracts of yeasts
Assay type: biochemical
CONDITION SET: methanol-grown; cell extract + NAD^+; sec. alcohol to methyl ketone; gas chromatography

Worked cases, Conversion Rate given:
{"MOLECULE": "CC(C)O", "Conversion Rate": "4.5 μmoles/hr/mg Protein"}
{"MOLECULE": "CCCCC(C)O (stereo not shown)", "Conversion Rate": "0.45 μmoles/hr/mg Protein"}
{"MOLECULE": "CCC(C)O (stereo not shown)", "Conversion Rate": "4.92 μmoles/hr/mg Protein"}

Proceed to the following item.
Reported Conversion Rate, molecule CCCC(C)O (stereo not shown) : ____ 0.82 μmoles/hr/mg Protein

---

Tested on: Methylosinus trichosporium CRL 15 NRRL B-11,202
ASSAY TEXT: Sec. alcohol oxidation by cell suspensions of methanol-grown cells
Format: cell-based
CONDITION SET: sec. alcohol to methyl ketone
MEASURED PARAMETER: Conversion Rates (μmoles/hr/mg protein)
Your answer is read as μmoles/hr/mg protein, so omit the unit and give the number.

Worked cases, Conversion Rates given:
{"COMPOUND": "CCCCC(C)O (stereo not shown)", "Conversion Rates (μmoles/hr/mg protein)": 0.06}
{"COMPOUND": "CCC(C)O (stereo not shown)", "Conversion Rates (μmoles/hr/mg protein)": 4.5}
{"COMPOUND": "CCCC(C)O (stereo not shown)", "Conversion Rates (μmoles/hr/mg protein)": 0.09}

Proceed to the following item.
Reported Conversion Rates, compound CC(C)O : ____ 0.50

---

System: purified secondary alcohol dehydrogenase from Pichia sp. NRRL Y-11,328
ASSAY TEXT: Inhibitors of purified yeast SADH
Assay type: biochemical
CONDITION SET: primary alcohols tested at 10^-3 M
MEASURED PARAMETER: inhibition of secondary alcohol dehydrogenase activity

{"COMPOUND": "O=C(O)c1cc[c]([Hg+])cc1.[OH-] [p-hydroxymercuribenzoate]", "RECORDED MEASUREMENT": "strongly inhibited"}
{"COMPOUND": "O=[N+]([O-])[O-].[Ag+] [silver nitrate]", "RECORDED MEASUREMENT": "inhibited"}
{"COMPOUND": "N#C[S][Hg][S]C#N [mercuric thiocyanate]", "RECORDED MEASUREMENT": "inhibited"}
{"COMPOUND": "c1c[nH]cn1", "RECORDED MEASUREMENT": "strongly inhibited"}
{"COMPOUND": "c1cnc2c(c1)ccc1cccnc12", "RECORDED MEASUREMENT": "strongly inhibited"}

Item: N[C@@H](CCC(=O)N[C@@H](CS)C(=O)NCC(=O)O)C(=O)O Test system: purified secondary alcohol dehydrogenase from Pichia sp. NRRL Y-11,328 Read-out: inhibition of secondary alcohol dehydrogenase activity Value: ? strongly inhibited

Item: O=S(=O)([O-])[O-].[Cu+2] [Cupric Sulfate] Test system: purified secondary alcohol dehydrogenase from Pichia sp. NRRL Y-11,328 Read-out: inhibition of secondary alcohol dehydrogenase activity Value: ? inhibited

---

Tested on: Torulopsis sp. Strain A1 (NRRLY-11,419)
ASSAY TEXT: Oxidation of sec-alcohols to ketones by cell suspensions of yeasts
Type: cell-based
CONDITION SET: growth substrate Ethanol; sec-alcohol to methyl ketone
Measured Conversion Rate, listed per entry for reference.

Worked cases, Conversion Rate given:
{"COMPOUND": "CCCCC(C)O (stereo not shown)", "SYSTEM": "Torulopsis sp. Strain A1 (NRRLY-11,419)", "Conversion Rate": "0.20 μmoles/hr/mg of protein"}
{"COMPOUND": "CC(C)O", "SYSTEM": "Torulopsis sp. Strain A1 (NRRLY-11,419)", "Conversion Rate": "4.2 μmoles/hr/mg of protein"}
{"COMPOUND": "CCCC(C)O (stereo not shown)", "SYSTEM": "Torulopsis sp. Strain A1 (NRRLY-11,419)", "Conversion Rate": "1.2 μmoles/hr/mg of protein"}

Proceed to the following item.
Item: CCC(C)O (stereo not shown) Test system: Torulopsis sp. Strain A1 (NRRLY-11,419) Read-out: Conversion Rate Value: ? 4.7 μmoles/hr/mg of protein

---

System: Candida utilis ATCC 26387
ASSAY TEXT: Oxidation of sec-alcohols to ketones by cell suspensions of yeasts
Assay type: cell-based
CONDITION SET: growth substrate Ethanol; sec-alcohol to methyl ketone
Measured Conversion Rate, listed per entry for reference.

Worked cases, Conversion Rate given:
{"MOLECULE": "CCCC(C)O (stereo not shown) [2-Pentanol]", "SYSTEM": "Candida utilis ATCC 26387", "Conversion Rate": "1.0 μmoles/hr/mg of protein"}
{"MOLECULE": "CCCCC(C)O (stereo not shown) [2-Hexanol]", "SYSTEM": "Candida utilis ATCC 26387", "Conversion Rate": "0.72 μmoles/hr/mg of protein"}
{"MOLECULE": "CC(C)O [Isopropanol]", "SYSTEM": "Candida utilis ATCC 26387", "Conversion Rate": "5.2 μmoles/hr/mg of protein"}

Reported Conversion Rate, molecule CCC(C)O (stereo not shown) [2-Butanol] : ____ 5.2 μmoles/hr/mg of protein

---

System: Methylobacter vinelandii (CRL M5Y) NRRL B-11,218
ASSAY TEXT: Oxidation by washed cell suspensions of methane-grown cells
Assay type: cell-based
CONDITION SET: methane-grown washed cells, 30° C.; methane to methanol, alkene to 1,2-epoxide
MEASURED PARAMETER: Oxidative Conversion Rates (μmole/hr/mg protein)
Your answer is read as μmole/hr/mg protein, so omit the unit and give the number.

Reported Oxidative Conversion Rates, compound C : ____ 0.9

Reported Oxidative Conversion Rates, compound C=C : ____ 1.2

Reported Oxidative Conversion Rates, compound C=CCC : ____ 0

Reported Oxidative Conversion Rates, compound C=CC : ____ 1.9

---

Tested on: Torulopsis sp. Strain A1 (NRRLY-11,419)
ASSAY TEXT: Oxidation of sec-alcohols to ketones by cell suspensions of yeasts
Format: cell-based
CONDITION SET: growth substrate Methylformate; sec-alcohol to methyl ketone
MEASURED PARAMETER: Conversion Rate

Worked cases, Conversion Rate given:
{"MOLECULE": "CC(C)O", "Conversion Rate": "4.5 μmoles/hr/mg of protein"}
{"MOLECULE": "CCC(C)O (stereo not shown)", "Conversion Rate": "4.9 μmoles/hr/mg of protein"}
{"MOLECULE": "CCCCC(C)O (stereo not shown)", "Conversion Rate": "0.25 μmoles/hr/mg of protein"}

Reported Conversion Rate, molecule CCCC(C)O (stereo not shown) : ____ 1.1 μmoles/hr/mg of protein

---

Test system: Kloeckera sp. Strain A2 (NRRLY-11,420)
ASSAY TEXT: Oxidation of sec-alcohols to ketones by cell suspensions of yeasts
Format: cell-based
CONDITION SET: growth substrate Methylformate; sec-alcohol to methyl ketone
Measured Conversion Rate, listed per entry for reference.

Worked cases, Conversion Rate given:
{"COMPOUND": "CCCC(C)O (stereo not shown)", "RECORDED MEASUREMENT": "1.2 μmoles/hr/mg of protein"}
{"COMPOUND": "CCC(C)O (stereo not shown)", "RECORDED MEASUREMENT": "5.9 μmoles/hr/mg of protein"}
{"COMPOUND": "CC(C)O", "RECORDED MEASUREMENT": "4.9 μmoles/hr/mg of protein"}

Proceed to the following item.
Reported Conversion Rate, compound CCCCC(C)O (stereo not shown) : ____ 0.28 μmoles/hr/mg of protein
